Experiment: Cyto-toxicity (MTT assay)
Format: cell-based
OBSERVED PROPERTY: viability at 4 days, 0.001 µM (%)
Numbers only, in %.

CC(C)C1=C2[C@H]3CC[C@@H]4[C@@]5(C)CC[C@H](OC(=O)[C@H]6C[C@@H](C(=O)O)C6(C)C)C(C)(C)[C@@H]5CC[C@@]4(C)[C@]3(C)CC[C@@]2(NC(=O)C(C)(C)NC(=O)c2cccnc2N2CCOCC2)CC1=O [Example 31] | 81

Okay, now this molecule:
Quick one: viability at 4 days, 0.001 µM of Cc1noc(C)c1C(=O)NC(C)(C)C(=O)N[C@@]12CC[C@]3(C)[C@H](CC[C@@H]4[C@@]5(C)CC[C@H](OC(=O)[C@H]6C[C@@H](C(=O)O)C6(C)C)C(C)(C)[C@@H]5CC[C@]43C)C1=C(C(C)C)C(=O)C2 [Example 19] ?
79
